MEASURED TARGET: UniProtKB P41145
Sequence (P41145 whole entry): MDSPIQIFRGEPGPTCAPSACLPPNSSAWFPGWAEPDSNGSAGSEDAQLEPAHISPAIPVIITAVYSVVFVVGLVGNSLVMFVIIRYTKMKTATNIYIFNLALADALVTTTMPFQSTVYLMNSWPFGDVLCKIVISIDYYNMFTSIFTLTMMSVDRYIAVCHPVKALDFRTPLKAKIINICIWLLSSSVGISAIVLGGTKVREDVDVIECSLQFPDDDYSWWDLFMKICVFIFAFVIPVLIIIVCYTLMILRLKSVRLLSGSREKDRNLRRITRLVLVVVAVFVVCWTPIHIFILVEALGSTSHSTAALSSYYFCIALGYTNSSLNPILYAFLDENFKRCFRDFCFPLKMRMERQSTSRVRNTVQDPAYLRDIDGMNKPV
Assay type: binding
Please go through the items and note down their Selectivity DOR/KOR.

Solved cases below.
[[record]]
smiles_str = "COC(=O)[C@@H]1C[C@H](OC(=O)/C=C/c2ccccc2[N+](=O)[O-])C(=O)[C@H]2[C@@]1(C)CC[C@H]1C(=O)O[C@H](c3ccoc3)C[C@]21C"
readout_kind = "Selectivity DOR/KOR"
measurement = ">67"

[[record]]
smiles_str = "C/C=C/C(=O)O[C@H]1C[C@@H](C(=O)OC)[C@]2(C)CC[C@H]3C(=O)O[C@H](c4ccoc4)C[C@]3(C)[C@H]2C1=O"
readout_kind = "Selectivity DOR/KOR"
measurement = ">395"

[[record]]
smiles_str = "C=C(C)CC(=O)O[C@H]1C[C@@H](C(=O)OC)[C@]2(C)CC[C@H]3C(=O)O[C@H](c4ccoc4)C[C@]3(C)[C@H]2C1=O"
readout_kind = "Selectivity DOR/KOR"
measurement = ">1666"


Kindly consider the entry below.
Ask | // lookup Selectivity DOR/KOR for COC(=O)[C@@H]1C[C@H](OC(=O)/C=C/c2cccnc2)C(=O)[C@H]2[C@@]1(C)CC[C@H]1C(=O)O[C@H](c3ccoc3)C[C@]21C
Reply | <0.48
